experiment: Microsomal stability; type: in vitro ADME; settings: mouse liver microsomes, NADPH, 37°C; read-out: half-life in mouse liver microsomes (t1/2)
METRIC: half-life (min)

SMILES_DATA | VALUE
COc1ccc2c(c1)-c1nc(SCC(F)(F)F)n(C)c(=O)c1C(C)(C)C2 | 19.6

* * *

test: Solubility in water containing sodium dodecyl sulfate (SDS); type: physicochemical; conditions: 1.0% (w/v) SDS solution, aqueous with cosolvent or surfactant or cyclodextrin, thermodynamic from solid; 1.0% (w/v) SDS, 24 h, 37°C, 200 rpm

SMILES_DATA | solubility at 24 h [µg/mL]
COc1ccc2c(c1)-c1nc(SCC(F)(F)F)n(C)c(=O)c1C(C)(C)C2 | 68.5
